For each record, write down the corresponding Enzyme Activity Endpoint Assay (purified): Fab′2.
# TARGET_ENTITY: pooled human IgG (human IgG1, 2, 3 and 4)
Give bare numbers, in ng/µL.

In the examples that follow, each entry is paired with its recorded Enzyme Activity Endpoint Assay (purified): Fab′2.
| PROTEIN | ENDPOINT_UNIT | OBSERVED_MEASUREMENT |
| --- | --- | --- |
| PRT-621 (protein) MQITSVWTKGVTPLTPEQFRYNNEDVIHAPYLAHQGWYDITKAFDGKDNLLCGAATAGNMLHWWFDQNKTEIEAYLSKHPEKQKIIFNNQELFDLKAAIDTKDSQTNSQLFNYFRDKAFPNLSARQLGVMPDLVLDMFINGYYLNVFKTQSTDVNRPYQDKDKRGGIFDAVFTRGDQTTLLTARHDLKNKTLNEISQIIKQELSSGRALALSHTYANVSISHVINLWGADFNAEGNLEAIYVTDSDANASIGMKKYFVGINAHGHVAISAKKIEGENIGAQVLGLFTLSSGKDIWQKLSLEHHHHHH | ng/µL | 976 |
| PRT-690 (protein) MQITSVWTKGVTPPTPEQFRYNNEDVIHAPYLANQGWYDITKTFNGKDNLLCGAATAGNMLHWWFDQNKTEIEAYLSKYPEKQKIIFNNQELFDLRAAINTKDSQTNSQLFNYFRDKAFPNLSARQLGVMPDLVLDMFINGYYLNVFKTQSTDVNRPYQDKDKRGGIFDAVFNRGDQTTLLTARHDLKNKTLNDISTLIKQELSSGKALALSHTYANVSISHVINLWGADFNAEGNLEAIYVTDSDANSNIGMKKYKVGVNAHGKVAISAKKIEGENIGAQVLGLFTLSSGKDIWQKLSLEHHHHHH | ng/µL | 966 |
| PRT-686 (protein) MQITSVWTKGVTPLTPEQFTYNNEDVIHAPYIANQGWYDITKTFNGKDNLLCGAATAGNMLHWWFDQNKTEIENYLKKHPEKQKIIFNNQELFDLRKAINTKDSQTNSALFNYFRDKAFPNLSARQLGVMPDLVLDMFINGYYLNVFKTQSTDVNRPYQTKDKRGGIFDHVFTRGDQSTLLTARHDLKNKTLNEISDIIKQELTEGKALALSHTYANVSISHVINLWGADFNAEGNLEAIYVTDSDANASIGMKKYFVGVNSHGKVAISAKKIEDENIGAQVLGLFTLSSGQDIWEQLSLEHHHHHH | ng/µL | 608 |

# input Need Enzyme Activity Endpoint Assay (purified): Fab′2 of PRT-692 (protein) MQITSVWTKGVTPPTPEQFRYNNEDVIHAPYLPNQGWYDITKTFNGGDNLLCGAATAGNMLHWWFDQNKTEIEAYLSKYPEKQKIIFNNQELFDLRAAINSKDSQTNSQLFNYFRDKAFPNLSARQLGVMPDLVLDMFINGYYLNVFKTQSTDVNRPYQDPDKRGGIFDDVFKEGDQTTLLTARHDLKNGTLNDISTLIKQELQSGKALALSHTYANVSISHVINLWGADFNAEGNLEAIYVTDSDANQSIGMKKYKVGVNAHGKVAISAKKIEGENIGAQVLGLFTLSSGKEIWQKLSLEHHHHHH , thanks.
# output 442
